System: conscious rats with partial urethral obstruction
assay.method.text: Cystometry in conscious rats obstructed by partial urethra ligature (unstable-bladder contractions)
Assay type: in vivo, rat
protocol.conditions: 2 min; obstructed rat, 1 mg/kg, 2 minutes before micturition; read-out: % inhibition of amplitude of non-effective micturition contractions
Entries and their measured inhibition in vivo at 1 mg/kg follow.
measurement.kind: inhibition in vivo at 1 mg/kg (%)

INSERT INTO assay_data (compound, result) VALUES
  ('COc1ccc(Cl)cc1N1CCN(CCCNC(=O)c2c(-c3ccccc3)noc2C)CC1 [Compound B]', 44),
  ('Cc1onc(-c2ccccc2Cl)c1C(=O)NCCCN1CCN(c2ccccc2OCC(F)(F)F)CC1 [Compound D]', 73),
  ('O=C1CC2(CCCC2)CCN1CCN1CCN(c2cc(Cl)ccc2Cl)CC1 [Rec 26D/073]', 18),
  ('O=C1CC2(CCCC2)CC(=O)N1CCN1CCN(c2cc(Cl)ccc2Cl)CC1 [Rec 26D/038]', 21),
  ('COc1cc2nc(N3CCN(C(=O)C4CCCO4)CC3)nc(N)c2cc1OC (centres unmarked) [Terazosin, terazosin]', 86);

---

assayed.target: cloned α1d-adrenoceptor subtype (Homo sapiens, UniProt P25100)
Construct: expressed in transfected cells
Sequence (P25100 1-572): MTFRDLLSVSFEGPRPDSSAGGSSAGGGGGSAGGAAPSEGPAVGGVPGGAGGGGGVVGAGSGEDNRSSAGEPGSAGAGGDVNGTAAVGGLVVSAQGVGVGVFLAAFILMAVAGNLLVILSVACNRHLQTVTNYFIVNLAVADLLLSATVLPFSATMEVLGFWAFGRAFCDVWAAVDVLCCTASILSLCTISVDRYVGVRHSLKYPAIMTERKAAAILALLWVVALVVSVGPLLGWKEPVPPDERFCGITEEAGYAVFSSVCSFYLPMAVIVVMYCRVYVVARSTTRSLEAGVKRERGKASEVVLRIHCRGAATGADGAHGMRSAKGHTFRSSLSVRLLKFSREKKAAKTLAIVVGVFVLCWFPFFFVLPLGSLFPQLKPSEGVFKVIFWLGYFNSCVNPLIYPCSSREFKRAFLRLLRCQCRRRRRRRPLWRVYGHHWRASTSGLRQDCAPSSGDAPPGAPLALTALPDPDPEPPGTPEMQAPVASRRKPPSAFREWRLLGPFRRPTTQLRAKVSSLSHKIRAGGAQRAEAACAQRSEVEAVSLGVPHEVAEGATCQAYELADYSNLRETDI
assay.method.text: Radioligand binding assay ([3H]prazosin), cloned α1d-adrenoceptor subtype
protocol.conditions: read-out: Binding Affinity (Ki nM) α1d
measurement.kind: Ki (nM)

INSERT INTO results (compound, result) VALUES
  ('Cc1onc(-c2ccccc2Cl)c1C(=O)NCCCN1CCN(c2ccccc2OCC(F)(F)F)CC1', 0.49),
  ('COc1ccc(Cl)cc1N1CCN(CCCNC(=O)c2c(-c3ccccc3)noc2C)CC1', 2.7),
  ('Cc1onc(-c2ccccc2)c1C(=O)NCCCN1CCN(c2cc(F)ccc2OCC(F)(F)F)CC1', 0.33),
  ('Cc1onc(-c2ccccc2)c1C(=O)NCCCN1CCN(c2ccc(F)cc2OCC(F)(F)F)CC1', 18.9),
  ('O=C1CC2(CCCC2)CCN1CCN1CCN(c2cc(Cl)ccc2Cl)CC1 [Rec 26D/073]', 0.11),
  ('O=C1CC2(CCCC2)CC(=O)N1CCN1CCN(c2cc(Cl)ccc2Cl)CC1 [Rec 26D/038]', 0.13);

---

assayed.target: cloned α1d-adrenoceptor subtype (Homo sapiens)
Construct: expressed in transfected cells
assay.method.text: Radioligand binding assay ([3H]prazosin), cloned α1d-adrenoceptor subtype
protocol.conditions: cloned receptor, cell membranes, 0.2 nM [3H]prazosin; mean Ki; read-out: Binding Affinity (Ki nM) α1d
measurement.kind: Ki

INSERT INTO results (smiles_structure, measurement_kind, result) VALUES
  ('CCOc1ccccc1OCCN[C@H](C)Cc1ccc(OC)c(S(N)(=O)=O)c1', 'Ki', '0.16 nM');

---

assayed.target: cloned α1b-adrenoceptor subtype (Homo sapiens, UniProt P35368)
Construct: expressed in transfected cells
Sequence (P35368 1-520): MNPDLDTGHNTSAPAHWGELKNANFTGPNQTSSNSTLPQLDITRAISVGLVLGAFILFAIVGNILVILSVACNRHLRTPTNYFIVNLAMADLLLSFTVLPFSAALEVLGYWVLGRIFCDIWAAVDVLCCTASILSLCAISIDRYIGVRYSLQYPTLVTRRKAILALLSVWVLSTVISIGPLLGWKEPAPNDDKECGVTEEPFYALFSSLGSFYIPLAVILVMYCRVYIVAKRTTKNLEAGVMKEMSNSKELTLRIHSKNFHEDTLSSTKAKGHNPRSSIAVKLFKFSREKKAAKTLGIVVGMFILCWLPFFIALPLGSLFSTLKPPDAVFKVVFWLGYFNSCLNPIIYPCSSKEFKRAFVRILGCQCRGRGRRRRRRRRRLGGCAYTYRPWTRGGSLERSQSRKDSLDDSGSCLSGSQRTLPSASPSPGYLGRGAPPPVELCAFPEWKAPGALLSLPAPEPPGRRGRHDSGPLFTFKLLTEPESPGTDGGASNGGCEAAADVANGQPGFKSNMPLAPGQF
assay.method.text: Radioligand binding assay ([3H]prazosin), cloned α1b-adrenoceptor subtype
protocol.conditions: read-out: Binding Affinity (Ki nM) α1b
measurement.kind: Ki (nM)

INSERT INTO assay_data (molecule, measurement_kind, result) VALUES
  ('O=C1CC2(CCCC2)CC(=O)N1CCN1CCN(c2cc(Cl)ccc2Cl)CC1 [Rec 26D/038]', 'Ki', 19),
  ('CCOc1ccccc1OCCN[C@H](C)Cc1ccc(OC)c(S(N)(=O)=O)c1 [Tamsulosin, tamsulosin]', 'Ki', 0.94),
  ('O=C1CC2(CCCC2)CCN1CCN1CCN(c2cc(Cl)ccc2Cl)CC1 [Rec 26D/073]', 'Ki', 11),
  ('Cc1onc(-c2ccccc2Cl)c1C(=O)NCCCN1CCN(c2ccccc2OCC(F)(F)F)CC1 [Compound D]', 'Ki', 14.1);

---

assayed.target: cloned α1a-adrenoceptor subtype (Homo sapiens)
Construct: expressed in transfected cells
Sequence (P35348 1-466): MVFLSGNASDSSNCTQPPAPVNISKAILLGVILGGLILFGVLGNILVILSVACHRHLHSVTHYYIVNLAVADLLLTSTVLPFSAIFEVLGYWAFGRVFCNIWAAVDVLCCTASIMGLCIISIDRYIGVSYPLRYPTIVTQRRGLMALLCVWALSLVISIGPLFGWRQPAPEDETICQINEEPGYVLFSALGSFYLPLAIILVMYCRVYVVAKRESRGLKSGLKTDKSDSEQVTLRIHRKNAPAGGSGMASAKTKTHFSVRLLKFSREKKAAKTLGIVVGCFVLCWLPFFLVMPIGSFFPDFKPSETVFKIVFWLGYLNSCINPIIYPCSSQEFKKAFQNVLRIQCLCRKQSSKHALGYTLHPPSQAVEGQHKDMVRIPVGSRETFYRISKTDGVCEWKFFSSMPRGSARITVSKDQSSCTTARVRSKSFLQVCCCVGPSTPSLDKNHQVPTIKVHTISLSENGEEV
assay.method.text: Radioligand binding assay ([3H]prazosin), cloned α1a-adrenoceptor subtype
protocol.conditions: read-out: Binding Affinity (Ki nM) α1a
Entries and their measured Ki follow.
measurement.kind: Ki (nM)

INSERT INTO results (compound, result) VALUES
  ('COc1ccc(Cl)cc1N1CCN(CCCNC(=O)c2c(-c3ccccc3)noc2C)CC1 [Compound B]', 0.8),
  ('Cc1onc(-c2ccccc2Cl)c1C(=O)NCCCN1CCN(c2ccccc2OCC(F)(F)F)CC1 [Compound D]', 0.07),
  ('Cc1onc(-c2ccccc2)c1C(=O)NCCCN1CCN(c2ccc(F)cc2OCC(F)(F)F)CC1 [Rec 27/0110]', 0.35),
  ('Cc1onc(-c2ccccc2)c1C(=O)NCCCN1CCN(c2cc(F)ccc2OCC(F)(F)F)CC1 [Compound C]', 0.05);

Cited source: patent US20020183290A1
